test: Activators via SNCA 5'UTR binding, MLPCN (AID 1814); details: alpha-synuclein 5'UTR reporter, activators screen; tested at 7.5 µM
About 22,000 (7.3%) of roughly 300,000 compounds were called active. Roughly 2% stayed inconclusive and do not appear here. Rule as the data show it: active = activity score below about -60%; inconclusive = mostly about -28% to -61%; inactive = positive scores. The sample as a whole holds a higher share of actives than the screen did.
Classes used: active, inactive

{"columns": ["molecule", "group label"],
 "data": [
  ["COc1ccc(C(=S)Nc2ccccc2)cc1", "active"],
  ["CC1CN/C(=C\\C(=O)c2ccc(Br)cc2)C(=O)N1 (configuration not stated)", "inactive"],
  ["COc1ccc(C(=O)Nc2ccc(CN3CCOCC3)cc2)cc1", "active"],
  ["CN1CCN(CCCNC(=O)c2ccc(/C=C3\\Oc4ccccc4N(Cc4ccc(Cl)cc4)C3=O)cc2)CC1", "inactive"],
  ["NS(=O)(=O)c1ccc(NC(=S)NC(=O)c2cccc(Br)c2)cc1", "active"],
  ["CN1c2ccc(C=O)c3c(C=O)ccc(c23)N(C)C1(C)C", "inactive"],
  ["c1csc(-c2nc(-c3ccncc3)no2)c1", "active"],
  ["COc1ccc(NC(=O)ON=C2c3ccccc3-c3ccccc32)cc1", "active"],
  ["CC(C)c1ccc(C(=O)NCCCc2ccccc2)cc1", "active"],
  ["COc1cc(/C=N/n2c(C)n[nH]c2=S)ccc1OCc1ccccc1", "active"],
  ["Cc1ccc(-c2nc(-c3ccncc3)no2)c(C)c1", "active"],
  ["O=C(COc1ccc2oc3c(c2c1)CCCC3)Nc1ccccn1", "active"]
]}
